Biological target: N-type calcium channel (Homo sapiens)
Sequence (Q00975 whole entry): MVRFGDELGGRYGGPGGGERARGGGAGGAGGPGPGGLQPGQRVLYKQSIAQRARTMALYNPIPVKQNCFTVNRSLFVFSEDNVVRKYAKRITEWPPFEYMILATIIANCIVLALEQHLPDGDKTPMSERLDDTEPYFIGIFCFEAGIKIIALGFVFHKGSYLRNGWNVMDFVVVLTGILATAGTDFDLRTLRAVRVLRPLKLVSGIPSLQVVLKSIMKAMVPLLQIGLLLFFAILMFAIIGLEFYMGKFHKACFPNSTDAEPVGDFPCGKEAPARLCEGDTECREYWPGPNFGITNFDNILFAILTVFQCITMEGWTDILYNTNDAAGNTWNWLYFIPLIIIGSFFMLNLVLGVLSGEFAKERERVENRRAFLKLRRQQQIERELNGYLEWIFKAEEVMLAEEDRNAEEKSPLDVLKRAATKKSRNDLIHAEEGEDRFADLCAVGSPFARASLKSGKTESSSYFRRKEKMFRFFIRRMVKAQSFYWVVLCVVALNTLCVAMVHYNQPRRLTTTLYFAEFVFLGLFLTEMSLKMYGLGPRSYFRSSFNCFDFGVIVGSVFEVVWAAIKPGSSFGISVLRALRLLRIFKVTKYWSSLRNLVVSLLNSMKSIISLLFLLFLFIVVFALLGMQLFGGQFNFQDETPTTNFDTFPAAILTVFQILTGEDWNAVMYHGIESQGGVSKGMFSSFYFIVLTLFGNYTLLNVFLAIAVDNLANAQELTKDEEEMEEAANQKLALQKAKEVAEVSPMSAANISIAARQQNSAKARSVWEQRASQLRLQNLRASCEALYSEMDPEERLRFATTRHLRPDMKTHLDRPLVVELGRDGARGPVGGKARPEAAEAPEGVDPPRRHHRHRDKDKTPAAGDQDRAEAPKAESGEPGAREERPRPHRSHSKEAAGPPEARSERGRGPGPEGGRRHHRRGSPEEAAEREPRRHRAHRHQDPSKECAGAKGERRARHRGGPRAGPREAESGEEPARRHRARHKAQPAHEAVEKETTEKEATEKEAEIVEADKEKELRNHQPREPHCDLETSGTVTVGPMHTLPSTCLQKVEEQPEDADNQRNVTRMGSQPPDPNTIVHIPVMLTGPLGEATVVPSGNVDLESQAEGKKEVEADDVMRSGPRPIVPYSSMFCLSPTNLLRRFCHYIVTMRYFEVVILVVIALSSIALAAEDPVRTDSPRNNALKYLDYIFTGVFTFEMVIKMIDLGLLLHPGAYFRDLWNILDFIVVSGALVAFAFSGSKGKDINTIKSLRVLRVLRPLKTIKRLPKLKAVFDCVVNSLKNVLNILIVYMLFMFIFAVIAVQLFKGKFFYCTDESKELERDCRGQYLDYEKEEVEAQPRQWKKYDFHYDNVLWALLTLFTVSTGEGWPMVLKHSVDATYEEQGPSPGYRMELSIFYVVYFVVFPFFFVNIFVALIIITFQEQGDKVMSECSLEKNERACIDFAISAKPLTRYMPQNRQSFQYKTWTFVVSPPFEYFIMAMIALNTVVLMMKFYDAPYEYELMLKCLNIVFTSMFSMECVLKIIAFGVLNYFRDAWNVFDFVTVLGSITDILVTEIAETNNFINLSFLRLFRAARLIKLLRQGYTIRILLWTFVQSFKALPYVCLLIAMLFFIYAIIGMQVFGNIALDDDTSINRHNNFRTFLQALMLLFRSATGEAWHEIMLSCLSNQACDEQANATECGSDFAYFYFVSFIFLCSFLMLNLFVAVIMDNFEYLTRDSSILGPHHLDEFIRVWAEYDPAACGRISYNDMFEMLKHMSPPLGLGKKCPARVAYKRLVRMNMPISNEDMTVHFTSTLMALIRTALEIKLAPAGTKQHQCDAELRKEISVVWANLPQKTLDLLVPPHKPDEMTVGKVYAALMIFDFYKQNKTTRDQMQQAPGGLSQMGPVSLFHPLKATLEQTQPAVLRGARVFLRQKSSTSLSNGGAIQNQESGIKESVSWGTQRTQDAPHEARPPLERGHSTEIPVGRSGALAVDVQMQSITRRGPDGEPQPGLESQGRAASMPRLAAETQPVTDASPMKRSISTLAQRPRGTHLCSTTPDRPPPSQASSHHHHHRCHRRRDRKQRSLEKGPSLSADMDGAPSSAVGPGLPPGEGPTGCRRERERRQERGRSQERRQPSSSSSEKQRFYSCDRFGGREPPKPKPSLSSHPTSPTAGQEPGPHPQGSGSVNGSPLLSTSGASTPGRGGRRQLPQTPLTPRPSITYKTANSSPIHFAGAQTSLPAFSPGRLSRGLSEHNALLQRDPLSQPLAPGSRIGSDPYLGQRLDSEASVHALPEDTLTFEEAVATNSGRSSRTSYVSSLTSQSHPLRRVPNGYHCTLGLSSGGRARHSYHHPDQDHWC
Sequence (P54284 whole entry partner): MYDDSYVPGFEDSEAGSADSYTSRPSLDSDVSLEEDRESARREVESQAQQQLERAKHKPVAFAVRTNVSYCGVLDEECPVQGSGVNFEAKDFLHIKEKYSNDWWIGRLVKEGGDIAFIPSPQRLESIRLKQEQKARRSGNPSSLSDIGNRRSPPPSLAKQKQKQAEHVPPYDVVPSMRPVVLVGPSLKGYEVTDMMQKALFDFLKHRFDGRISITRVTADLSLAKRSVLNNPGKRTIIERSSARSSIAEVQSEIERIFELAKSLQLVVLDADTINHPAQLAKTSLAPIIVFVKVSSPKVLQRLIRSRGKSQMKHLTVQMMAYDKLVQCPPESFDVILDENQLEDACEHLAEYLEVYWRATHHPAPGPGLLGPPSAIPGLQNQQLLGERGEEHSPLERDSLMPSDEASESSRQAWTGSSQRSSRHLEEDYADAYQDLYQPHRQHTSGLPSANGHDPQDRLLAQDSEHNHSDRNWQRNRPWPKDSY
Sequence (P54289 25-946 partner limits assumed): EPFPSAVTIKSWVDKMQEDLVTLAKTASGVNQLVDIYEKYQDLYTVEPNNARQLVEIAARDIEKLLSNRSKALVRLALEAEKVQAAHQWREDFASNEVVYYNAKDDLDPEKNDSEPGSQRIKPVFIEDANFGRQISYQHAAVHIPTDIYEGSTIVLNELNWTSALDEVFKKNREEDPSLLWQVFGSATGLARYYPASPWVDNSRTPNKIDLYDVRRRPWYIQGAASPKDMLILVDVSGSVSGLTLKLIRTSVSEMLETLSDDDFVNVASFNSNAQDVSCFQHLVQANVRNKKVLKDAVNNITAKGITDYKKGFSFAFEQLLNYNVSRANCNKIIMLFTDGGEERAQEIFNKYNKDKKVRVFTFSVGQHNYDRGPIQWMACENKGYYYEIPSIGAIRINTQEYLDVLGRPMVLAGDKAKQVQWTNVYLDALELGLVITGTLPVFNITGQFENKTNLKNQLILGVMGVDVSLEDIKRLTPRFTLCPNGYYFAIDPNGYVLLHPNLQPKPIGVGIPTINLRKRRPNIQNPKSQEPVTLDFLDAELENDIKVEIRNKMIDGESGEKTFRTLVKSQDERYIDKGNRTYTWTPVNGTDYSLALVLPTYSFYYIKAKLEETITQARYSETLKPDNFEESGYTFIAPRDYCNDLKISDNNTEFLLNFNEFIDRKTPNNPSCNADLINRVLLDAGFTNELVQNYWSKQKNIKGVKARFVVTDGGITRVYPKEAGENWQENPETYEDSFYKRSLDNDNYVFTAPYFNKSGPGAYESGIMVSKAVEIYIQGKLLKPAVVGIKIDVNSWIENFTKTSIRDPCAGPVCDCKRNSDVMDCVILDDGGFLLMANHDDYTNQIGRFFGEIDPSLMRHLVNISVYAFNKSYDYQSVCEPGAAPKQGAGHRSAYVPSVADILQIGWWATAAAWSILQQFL
Sequence (P54289 947-1103 partner limits assumed): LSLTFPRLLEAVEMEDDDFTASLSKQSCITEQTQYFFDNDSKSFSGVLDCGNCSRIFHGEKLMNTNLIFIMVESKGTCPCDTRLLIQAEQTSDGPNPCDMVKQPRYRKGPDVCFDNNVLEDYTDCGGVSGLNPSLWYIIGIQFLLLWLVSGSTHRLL
Assay: Automated Electrophysiology Assay (QPatch-HT whole-cell patch clamp; low- and high-frequency stimulation)
Format: cell-based
Conditions: low frequency; 0.1 μM; read-out: QPatch at Low Frequency % Inhibition
OBSERVABLE: inhibition at 0.1 µM (%)

A. COc1ccccc1-n1nc2c(c1-c1ccc(Cl)cc1)CC(NS(=O)(=O)C(C)C)C2 (centres unmarked)
B. COc1ccccc1-n1nc2c(c1-c1ccc(C#N)cc1)C[C@H](n1cc(CC(C)C)nn1)C2
I'm curious whether A or B has the smaller inhibition at 0.1 µM number. Which is it? Reply with the label of the item you choose.
B
(B: 13%, A: 35%)

P. COc1ccccc1-n1nc2c(c1-c1ccc(N(C)C)nc1)CC1(C2)OCC(C)(C)CO1
Q. COc1ccccc1-n1nc2c(c1-c1ccc(Cl)cc1)CC(N(C)S(C)(=O)=O)C2 (centres unmarked)
Hello, I am sorting some records. Could you say if P or Q has the smaller inhibition at 0.1 µM value? Mark your selection by writing its label.
P
(P: 27%, Q: 44%)

A. CCOc1ccccc1-n1nc2c(c1-c1ccc(Cl)cc1)CC(OC(=O)N(C)C)C2 (centres unmarked)
B. CCOc1ccc(-c2c3c(nn2-c2ccccc2OC)CC2(C3)OC(C)(C)C(C)(C)O2)cn1
Looking at recorded values for inhibition at 0.1 µM, does A or B come in lower? Respond with the label that goes with your answer.
B

1. COc1ccccc1-n1nc2c(c1-c1ccc(Cl)cc1)CC(NS(=O)(=O)N(C)C)C2 (centres unmarked)
2. COc1ccccc1-n1nc2c(c1-c1ccc(Cl)cc1)C[C@H](OC1CCCCC1)C2
// pick larger inhibition at 0.1 µM from pair: 1 vs 2 Record your answer as the label of the chosen record.
1
